Data provenance is patent US20060069013A1.

property measured: melting point

Problem: Need melting point of c1cc(COc2ccc3ccccc3c2)cc(-c2nnn[nH]2)c1 , thanks.
Result: 200 to 202 °C

Problem: Could you tell me which melting point is on file for O=C1NC(=O)/C(=C/c2c[nH]c3ccc([N+](=O)[O-])cc23)S1 ?
Result: 330 to 333 °C

Problem: Which measured melting point value corresponds to COc1cc(C=C2SC(=O)NC2=O)cc(I)c1O ?
Result: 256 °C

Problem: Look at this molecule and give its reported melting point. O=C1NC(=O)/C(=C/c2cc3ccccc3[nH]c2=O)S1
Result: 338 to 347 °C

Problem: # melting point lookup, item CC(/C=C1\SC(=O)NC1=O)=C\c1ccccc1
Result: 203 to 210 °C

Problem: Tell me the measured melting point of O=C1NC(=O)/C(=C/c2c(Cl)cccc2Cl)S1 , please.
Result: 152 to 154 °C

Problem: I'd like to know its melting point. The molecule in question is O=C1NC(=O)/C(=C/c2ccc3cc(O)ccc3c2)S1
Result: 310 to 314 °C

Problem: Which measured melting point value corresponds to COc1cc(OCc2c(F)cccc2[N+](=O)[O-])cc(OC)c1/C=C1\SC(=O)NC1=O ?
Result: 255 to 256 °C

Problem: Give the measured melting point of O=C1NC(=O)/C(=C/C(Cl)=C/c2ccccc2)S1 .
Result: 251 to 254 °C

* * *

Field: melting point. Provide a value for each of the compounds that follow.

Problem: Need melting point of CN(C)c1ccc(/C=C/C=C2\SC(=O)NC2=O)cc1 , thanks.
Result: 259 to 263 °C

Problem: Which melting point reading was recorded for the compound O=C1NC(=O)/C(=C/c2cc3ccccc3o2)S1 ?
Result: 265 to 266 °C

Problem: Find the recorded melting point belonging to COc1cc(O)cc(OC)c1/C=C1\SC(=O)NC1=O and report it.
Result: 331 to 333 °C
